Molecular target: human adenosine A2A receptor (Homo sapiens)
Construct: expressed in transfected cells; host or cells: CHO cells, semliki forest virus expression system; membrane preparation
Sequence (P29274 whole entry): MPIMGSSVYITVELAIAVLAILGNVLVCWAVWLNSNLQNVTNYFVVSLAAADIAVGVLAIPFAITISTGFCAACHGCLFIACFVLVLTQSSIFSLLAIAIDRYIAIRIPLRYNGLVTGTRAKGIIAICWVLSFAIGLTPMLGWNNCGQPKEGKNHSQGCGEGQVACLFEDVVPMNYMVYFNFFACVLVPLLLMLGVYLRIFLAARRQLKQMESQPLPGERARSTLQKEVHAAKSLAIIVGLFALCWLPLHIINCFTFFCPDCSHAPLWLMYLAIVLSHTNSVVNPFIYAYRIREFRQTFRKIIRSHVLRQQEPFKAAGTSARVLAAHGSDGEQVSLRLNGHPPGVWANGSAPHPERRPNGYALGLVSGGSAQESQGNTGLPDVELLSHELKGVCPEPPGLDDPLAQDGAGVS
Assay: Human adenosine A2A receptor [3H]-SCH-583261 binding assay (SPA, CHO cell membranes)
Conditions: [3H]-SCH-583261 1 nM; membranes of CHO cells expressing the recombinant receptor; Ki by Cheng-Prussoff equation; read-out: hA2 (pKi) (converted)
Procedure: Human Adenosine A2A Receptor The human adenosine A2A receptor was recombinantly expressed in chinese hamster ovary (CHO) cells using the semliki forest virus expression system. […] Assay plates were incubated for 1 hour at room temperature before centrifugation and then bound ligand determined using a Packard Topcount scintillation counter. IC50 values were calculated using a non-linear curve fitting program and Ki values calculated using the Cheng-Prussoff equation.
EXPERIMENTAL READOUT: Ki (nM)
One number for each entry, in nM.

{"GIVEN SMILES": "COc1ccc(N2CCOCC2)c2sc(NC(=O)c3ccnc(N4CCC4)c3)nc12", "Ki, nM": 0.955}
{"GIVEN SMILES": "COCCOc1cc(C(=O)Nc2nc3c(OC)ccc(N4CCOCC4)c3s2)ccn1", "Ki, nM": 3.16}
{"GIVEN SMILES": "COc1ccc(N2CCOCC2)c2sc(NC(=O)c3ccc(OC(C)C)nc3)nc12", "Ki, nM": 3.02}

For every record below, what is its Ki?
1. COc1ccc(N2CCOCC2)c2sc(NC(=O)c3ccnc(OC4CCCC4)c3)nc12
2. COc1ccc(N2CCOCC2)c2sc(NC(=O)c3ccnc(CN4CCC(O)CC4)c3)nc12
3. COc1ccc(N2CCOCC2)c2sc(NC(=O)c3ccnc(N(C)Cc4ccccc4)c3)nc12
4. COc1ccc(N2CCOCC2)c2sc(NC(=O)c3ccnc(OCCNC(C)=O)c3)nc12
5. COc1ccc(N2CCOCC2)c2sc(NC(=O)c3ccnc(OCc4ccccc4)c3)nc12
6. CCSCc1cc(C(=O)Nc2nc3c(OC)ccc(N4CCOCC4)c3s2)ccn1

Response given:
1: 2.95; 2: 2; 3: 1.62; 4: 1.58; 5: 2.63; 6: 1.58
